- System: MCF7
- experiment_summary: Cytotoxicity against human MCF7 cells expressing HER2delta16 assessed as reduction of cell viability after 48 hrs CellTiter-Glo assay
- Assay type: functional, cell-based
- condition_summary: MCF7, 48 h
Parameter: IC50. Scope: all listed entries.
Numeric answer only, unit µM assumed.

* O=C1C2=C(C(=O)c3c(O)ccc(O)c31)[C@@H](O)[C@@H](O)[C@@H](O)C2 | 0.91
* O=C1C(CO)=C(CO)C(=O)c2c(O)ccc(O)c21 | 0.93
* CC1=CC(=O)c2c(O)cccc2C1=O [PLUMBAGIN] | 5.1

Could you now look at the following compound, please?
Record CS(=O)(=O)CCNCc1ccc(-c2ccc3ncnc(Nc4ccc(OCc5cccc(F)c5)c(Cl)c4)c3c2)o1 [LAPATINIB] . Reported IC50: 19.2

====

- Tested on: MCF7
- experiment_summary: Cytotoxicity against human MCF7 cells expressing HER2delta16 assessed as reduction of cell viability at 10 uM after 48 hrs CellTiter-Glo assay
- Type: functional
Parameter: Activity. Scope: all listed entries.

A selection of reference data follows.
- CC1=CC(=O)c2c(O)cccc2C1=O: >90%
- CS(=O)(=O)CCNCc1ccc(-c2ccc3ncnc(Nc4ccc(OCc5cccc(F)c5)c(Cl)c4)c3c2)o1: <50%
- O=C1C2=C(C(=O)c3c(O)ccc(O)c31)[C@@H](O)[C@@H](O)[C@@H](O)C2: >90%

Record `O=C1C(CO)=C(CO)C(=O)c2c(O)ccc(O)c21` . Reported Activity: >90%

====

// IC50 collected for Receptor tyrosine-protein kinase erbB-2 (Homo sapiens, UniProt P04626)
Numeric answer only, unit µM assumed.

• O=C1C(CO)=C(CO)C(=O)c2c(O)ccc(O)c21 = 11.4
• O=C1C2=C(C(=O)c3c(O)ccc(O)c31)[C@@H](O)[C@@H](O)[C@@H](O)C2 = 10.8

Record `CC1=CC(=O)c2c(O)cccc2C1=O` . Reported IC50: 30.8

====

- system: Receptor tyrosine-protein kinase erbB-2 (Homo sapiens)
- Sequence (P04626 whole entry): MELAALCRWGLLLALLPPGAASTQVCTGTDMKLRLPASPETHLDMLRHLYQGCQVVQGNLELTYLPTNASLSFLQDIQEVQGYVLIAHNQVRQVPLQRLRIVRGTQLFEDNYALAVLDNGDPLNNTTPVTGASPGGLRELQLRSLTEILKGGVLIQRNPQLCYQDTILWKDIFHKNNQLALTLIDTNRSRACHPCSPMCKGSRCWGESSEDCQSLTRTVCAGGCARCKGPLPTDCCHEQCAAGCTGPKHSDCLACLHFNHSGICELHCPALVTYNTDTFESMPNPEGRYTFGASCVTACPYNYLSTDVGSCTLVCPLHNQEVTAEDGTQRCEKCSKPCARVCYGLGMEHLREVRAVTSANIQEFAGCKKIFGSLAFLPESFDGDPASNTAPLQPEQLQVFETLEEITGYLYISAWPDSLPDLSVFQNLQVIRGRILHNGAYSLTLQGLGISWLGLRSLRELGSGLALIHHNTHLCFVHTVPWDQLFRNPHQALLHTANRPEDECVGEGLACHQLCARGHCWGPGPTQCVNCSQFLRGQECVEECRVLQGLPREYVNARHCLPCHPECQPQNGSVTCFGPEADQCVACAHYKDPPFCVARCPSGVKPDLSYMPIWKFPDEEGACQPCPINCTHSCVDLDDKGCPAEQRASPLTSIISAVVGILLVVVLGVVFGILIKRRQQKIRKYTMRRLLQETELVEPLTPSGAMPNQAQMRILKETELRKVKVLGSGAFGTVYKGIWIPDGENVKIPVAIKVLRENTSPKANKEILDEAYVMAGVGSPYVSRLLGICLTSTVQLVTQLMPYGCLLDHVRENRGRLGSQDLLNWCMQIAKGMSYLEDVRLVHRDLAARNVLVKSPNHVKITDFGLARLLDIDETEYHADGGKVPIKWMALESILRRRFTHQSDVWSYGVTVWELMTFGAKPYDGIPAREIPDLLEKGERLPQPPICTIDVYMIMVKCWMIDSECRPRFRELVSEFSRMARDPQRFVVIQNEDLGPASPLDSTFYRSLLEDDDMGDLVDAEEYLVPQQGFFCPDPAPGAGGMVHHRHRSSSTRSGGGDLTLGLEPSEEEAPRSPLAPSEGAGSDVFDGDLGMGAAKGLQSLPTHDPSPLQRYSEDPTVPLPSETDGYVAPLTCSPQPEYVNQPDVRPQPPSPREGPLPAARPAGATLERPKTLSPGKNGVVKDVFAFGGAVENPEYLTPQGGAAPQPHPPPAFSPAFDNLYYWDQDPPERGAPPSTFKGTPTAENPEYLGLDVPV
- experiment_summary: Inhibition of HER2 autophosphorylation at Y1248 in human MCF7 cells expressing pcDNA3 at 10 uM after 2 hrs by Western blotting
- Assay type: cell-based
Calls of active or inactive are those of the source. The rule behind the calls is not given here.
The reply should name one outcome from T (active), F (inactive)

Examples with answers:
• O=C1C(CO)=C(CO)C(=O)c2c(O)ccc(O)c21 = T
• CS(=O)(=O)CCNCc1ccc(-c2ccc3ncnc(Nc4ccc(OCc5cccc(F)c5)c(Cl)c4)c3c2)o1 = T
• CC(=O)Oc1ccc(O)c2c1C(=O)C=CC2=O = F
• CC1=CC(=O)c2c(O)cccc2C1=O = T

Now examine the next entry.
Qu. # lookup: test call for `O=C1C2=C(C(=O)c3c(O)ccc(O)c31)[C@@H](O)[C@@H](O)[C@@H](O)C2`
Ans. T

====

- system: Receptor tyrosine-protein kinase erbB-2 (Homo sapiens)
- experiment_summary: Inhibition of HER2 autophosphorylation at Y1248 in human MCF7 cells at 10 uM after 2 hrs by Western blotting
- Format: cell-based
The source made the active and inactive calls. The calls are words filed in the database; no cut-off is given here.
The reply should name one outcome from active, inactive

• CC1=CC(=O)c2c(O)cccc2C1=O [PLUMBAGIN] = active
• CS(=O)(=O)CCNCc1ccc(-c2ccc3ncnc(Nc4ccc(OCc5cccc(F)c5)c(Cl)c4)c3c2)o1 [LAPATINIB] = active
• O=C1C2=C(C(=O)c3c(O)ccc(O)c31)[C@@H](O)[C@@H](O)[C@@H](O)C2 = active
• O=C1C(CO)=C(CO)C(=O)c2c(O)ccc(O)c21 = active

Now examine the next entry.
Qu. # lookup: test call for `CC(=O)Oc1ccc(O)c2c1C(=O)C=CC2=O`
Ans. inactive

====

- Test system: MCF7
- experiment_summary: Cytotoxicity against human MCF7 cells expressing HER2 assessed as reduction of cell viability at 10 uM after 48 hrs CellTiter-Glo assay
- Assay type: functional
measure_name: Activity

A selection of reference data follows.
* CC1=CC(=O)c2c(O)cccc2C1=O | >90%
* O=C1C(CO)=C(CO)C(=O)c2c(O)ccc(O)c21 | >90%
* O=C1C2=C(C(=O)c3c(O)ccc(O)c31)[C@@H](O)[C@@H](O)[C@@H](O)C2 | >90%

Could you now look at the following compound, please?
Value (Activity, MCF7) for record `CS(=O)(=O)CCNCc1ccc(-c2ccc3ncnc(Nc4ccc(OCc5cccc(F)c5)c(Cl)c4)c3c2)o1` = <50%
